These data points were gathered from PubChem BioAssay (NCATS).

EXPERIMENTAL PROTOCOL: P-glycoprotein substrates identified in KB-8-5-11 adenocarcinoma cell line, qHTS therapeutic library screen (AID 1346987); further: nearly all actives have a fitted effect of over 65% in size
APPLIED CONDITIONS: KB-8-5-11 (P-gp overexpressing) viability, CellTiter-Glo, 72 h; series mostly up to 44.5 µM
Results filed as inconclusive are left out. Calls of active or inactive are those of the source. The call rests on the fitted dose curve; in most records, active means well fitted inhibition curve with a large enough effect; inconclusive means small, poorly fitted or top-dose-only effect; inactive means flat fitted curve, though single readings scatter.
Hi! Could you answer with just one of these? true for active, false for inactive

Assay outcome for CC1(C)CC2=C3C=CC4C5(C)CCC(O)C(C)(C)C5CCC4(C)C3(C)CCC2(C)C(O)C1 (centres undefined) : what was it? false

Assay outcome for CCOc1ccc2nc(SCCN3CCOCC3)[nH]c2c1 : what was it? false

Assay outcome for NC(=O)c1cccc2cn(-c3ccc(C4CCCNC4)cc3)nc12 (centres undefined) : what was it? false

Assay outcome for COc1ccc(C2COc3cc(O)ccc3C2)c(O)c1 (centres undefined) : what was it? false

Assay outcome for C[C@@H]1O[C@@H](O[C@H]2[C@H](O)[C@@H](O)[C@H](OC3CCC4(C)C5CCC(C)(C(CO)OC6OC(CO)C(O)C(O)C6O)CC5=CCC4C3(C)C)O[C@@H]2CO)[C@H](O)[C@H](O)[C@H]1O (some centres undefined) : what was it? false

Assay outcome for CC(C)C(C(=O)N(C)C(C)C(N)=O)N(C)C(=O)C1CCCN1C(=O)/C=C/C=C/C(O)C(C)O (centres undefined) : what was it? false

Assay outcome for Cn1c2ccc(F)cc2c2c(C(=O)N3CCCC3)cn(-c3ccccc3)c(=O)c21 : what was it? false

Assay outcome for COc1ccccc1Oc1ccc(N(Cc2cccnc2)S(=O)(=O)CC(F)(F)F)cc1 : what was it? false

Assay outcome for O=C(/C=C/c1cccc(S(=O)(=O)Nc2ccccc2)c1)NO : what was it? true

----------
TARGET DESC: Luciferin 4-monooxygenase (Photinus pyralis) (UniProt P08659)
EXPERIMENTAL PROTOCOL: Primary firefly luciferase (FLuc) qHTS assay for identification of artifact compounds. (AID 1845220); further: nearly all actives have a fitted effect of over 60% in size;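 on activity change, negative = inhibition: plate controls were DMSO vehicle for no effect and no enzyme for full effect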
APPLIED CONDITIONS: purified firefly luciferase, luminescence, 5 min; series mostly up to 54.1 µM
Activity calls are given as the source filed them. The call rests on the fitted dose curve; in most records, active means well fitted inhibition curve with a large enough effect; inconclusive means small, poorly fitted or top-dose-only effect; inactive means flat fitted curve, though single readings scatter.
QUANTITY NAME: activity change, negative = inhibition

Solved cases below.
COc1cc2nc(N3CCC(N4CCCCC4)CC3)nc(NC3CCCCCC3)c2cc1OC
inactive
C[C@@H]1CC[C@]2(C(=O)O[C@@H]3O[C@H](CO)[C@@H](O)[C@H](O)[C@H]3O)CC[C@]3(C)C(=CCC4[C@@]5(C)C[C@@H](O)[C@H](O)[C@@](C)(C(=O)O[C@H]6[C@H](O)C[C@@]7(C)C(CC[C@]8(C)C7CC=C7[C@H]9[C@](C(=O)O[C@@H]%10O[C@H](CO)[C@@H](O)[C@H](O)[C@H]%10O)(CC[C@@H](C)[C@@]9(C)O)CC[C@]78C)[C@@]6(CO)C(=O)O)C5CC[C@]43C)[C@@H]2[C@]1(C)O (stereo not given in full)
0.17% [at 11.6 µM] (inactive)
CC12CCC(OC3OC(CO)C(O)C(OC4OC(CO)C(O)C(O)C4O)C3O)CC1=CCC1C2CCC2(C)/C(=C3/COC(=O)C3)CCC12O (stereo not given)
inactive
Cc1cc(N2CCN([C@@H]3CN[C@H](C(=O)N4CCSC4)C3)CC2)n(-c2ccccc2)n1
inactive

Continue with the molecule presented below.
Please list activity change, negative = inhibition recorded for the molecule CC(=O)NC1C(OC(C)(C)C2CCC3(C)C=C(C4CCC5C4(C)CC(O)C4OC(C(C)(C)O)CCC45C)CCC3O2)OC(CO)C(O)C1O (stereo not given) inactive
